Method description: recombinant UMI read abundance after kanamycin selection (control-corrected) (log10(CPM+1)); higher = more efficient recombination; extreme values may be limits of the assay; sequences stand for … in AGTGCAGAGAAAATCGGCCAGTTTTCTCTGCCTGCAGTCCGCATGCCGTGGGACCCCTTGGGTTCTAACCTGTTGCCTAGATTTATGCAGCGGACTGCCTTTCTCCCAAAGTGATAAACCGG…AGGTTGGTTTCACT; site = the 11-nt donor;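 further: IS621 bridge recombinase in Escherichia coli cells against a fixed T5 target plasmid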
The entries below come with measured recombinant UMI read abundance (log10) values attached.
Measured parameter: recombinant UMI read abundance (log10)

GTGGCTGCATGGACCGGTTTTCCCGGTAATCCGTATTTGCC (site GTGGCTGCTGG)	2.44
CCGTTTACATGGACCGGTTTTCCCGGTAATCCGTATTTGCC (site CCGTTTACTTG)	0
GAAGATTCATGGACCGGTTTTCCCGGTAATCCGTATTTGAT (site GAAGATTCTAG)	0
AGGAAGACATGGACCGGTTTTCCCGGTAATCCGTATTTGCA (site AGAAAGTCTTG)	0.0125
GATTAGACATGGACCGGTTTTCCCGGTAATCCGTATTTGAC (site GATTAGACTGT)	2.76
GGCCCAACATGGACCGGTTTTCCCGGTAATCCGTATTTGTA (site GGTCCAACTTA)	0.00413
CTATTATCATGGACCGGTTTTCCCGGTAATCCGTATTTGAC (site CTAGTATCTGT)	1.61
TGCTAGGCATGGACCGGTTTTCCCGGTAATCCGTATTTGAT (site TGCTAGGCTAA)	0.0172
GGCAAGCCATGGACCGGTTTTCCCGGTAATCCGTATTTGAA (site GGCAATCCTTT)	0
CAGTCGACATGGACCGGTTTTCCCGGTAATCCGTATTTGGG (site CAGTCTACTCC)	0.0277
TAGAATCCATGGACCGGTTTTCCCGGTAATCCGTATTTGCA (site TAGAATACTTG)	0
CACATATCATGGACCGGTTTTCCCGGTAATCCGTATTTGTC (site CCCATATCTGA)	0.724
TTTGCGGCATGGACCGGTTTTCCCGGTAATCCGTATTTGCC (site TTTGCGGCTAG)	0.0224
TAGAATACATGGACCGGTTTTCCCGGTAATCCGTATTTGCC (site TAGAATACTCG)	0
CGGAAGACATGGACCGGTTTTCCCGGTAATCCGTATTTGCA (site TGGAAGACTTG)	0.259
CTAGCGCCATGGACCGGTTTTCCCGGTAATCCGTATTTGTG (site CAAGCGCCTCA)	0.0754
GAGCTCACATGGACCGGTTTTCCCGGTAATCCGTATTTGTT (site GAGCTCACTAA)	1.53
CTAGTAGCATGGACCGGTTTTCCCGGTAATCCGTATTTGAC (site CTAGTAGCTGT)	2.87
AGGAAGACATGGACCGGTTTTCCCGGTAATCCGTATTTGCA (site AGGAGGACTGG)	0
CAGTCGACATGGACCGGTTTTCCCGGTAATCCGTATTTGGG (site CAGTCGACTCC)	0.297
TAGGAGTCATGGACCGGTTTTCCCGGTAATCCGTATTTGCG (site TAGGAATCTCG)	3.12
CGGCGTGCATGGACCGGTTTTCCCGGTAATCCGTATTTGAC (site CGGCGTGCTGT)	2.82
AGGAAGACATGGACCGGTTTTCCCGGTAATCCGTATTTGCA (site ACGAAGTCTTG)	0
TGTTCCCCATGGACCGGTTTTCCCGGTAATCCGTATTTGTC (site TGTTCCCCTCA)	0.00896
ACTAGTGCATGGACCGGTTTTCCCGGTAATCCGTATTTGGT (site ACTAATGCTAC)	0.409
GACTGGACATGGACCGGTTTTCCCGGTAATCCGTATTTGAC (site GAATGGACTGT)	0
GAAAGCTCATGGACCGGTTTTCCCGGTAATCCGTATTTGCG (site GAAAGCTCTCG)	2.77
GCTTACCCATGGACCGGTTTTCCCGGTAATCCGTATTTGAT (site GCTTCCCCTAT)	0
CGGACATCATGGACCGGTTTTCCCGGTAATCCGTATTTGCT (site CGGACATCTAC)	0
CTCGATACATGGACCGGTTTTCCCGGTAATCCGTATTTGCT (site CTCGATACTAG)	2.37
CCCTTGCCATGGACCGGTTTTCCCGGTAATCCGTATTTGCC (site CCCTAGCCTGG)	0
CACATATCATGGACCGGTTTTCCCGGTAATCCGTATTTGTC (site CACATATCTGA)	1.5
TCCCGACCATGGACCGGTTTTCCCGGTAATCCGTATTTGAG (site TCCCGACCTCT)	0.00764
ATCCACGCATGGACCGGTTTTCCCGGTAATCCGTATTTGAG (site ATCCATGCTCT)	0.00887
CCCTTATCATGGACCGGTTTTCCCGGTAATCCGTATTTGTC (site CCCATATCTGA)	0
TCCAATACATGGACCGGTTTTCCCGGTAATCCGTATTTGCC (site TCCAATCCTGG)	0

---

The entries below come with measured recombinant UMI read abundance (log10) values attached.
Method description: recombinant UMI read abundance after kanamycin selection (control-corrected) (log10(CPM+1)); higher = more efficient recombination; extreme values may be limits of the assay; sequences stand for … in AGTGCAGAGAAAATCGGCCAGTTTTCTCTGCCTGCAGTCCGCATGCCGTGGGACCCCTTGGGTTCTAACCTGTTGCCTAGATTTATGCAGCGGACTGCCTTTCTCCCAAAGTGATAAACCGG…AGGTTGGTTTCACT; site = the 11-nt donor
Measured parameter: recombinant UMI read abundance (log10)

AACCCACCATGGACCGGTTTTCCCGGTAATCCGTATTTGGA (site AACCCACCTTC)	0.0204
TCCTCATCATGGACCGGTTTTCCCGGTAATCCGTATTTGGA (site TCCTCATCTTC)	0.00521
CCTCAAGCATGGACCGGTTTTCCCGGTAATCCGTATTTGAT (site CCTCAAGCTAT)	0.0413
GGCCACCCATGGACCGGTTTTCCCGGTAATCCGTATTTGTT (site GGACACCCTAA)	0.0221
ACAAGAACATGGACCGGTTTTCCCGGTAATCCGTATTTGTC (site ACACGAACTGA)	0.00498
CTCCAAGCATGGACCGGTTTTCCCGGTAATCCGTATTTGAG (site ATCCAAGCTCT)	0.0148
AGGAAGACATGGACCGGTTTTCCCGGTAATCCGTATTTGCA (site AGAAAGACTTA)	0.795
ATTCAGACATGGACCGGTTTTCCCGGTAATCCGTATTTGGT (site ATTAAGACTAC)	0.402
CTTGACACATGGACCGGTTTTCCCGGTAATCCGTATTTGAC (site CTTGACACTGT)	0.445

---

Method description: recombinant UMI read abundance after kanamycin selection (control-corrected) (log10(CPM+1)); higher = more efficient recombination; extreme values may be limits of the assay; sequences stand for … in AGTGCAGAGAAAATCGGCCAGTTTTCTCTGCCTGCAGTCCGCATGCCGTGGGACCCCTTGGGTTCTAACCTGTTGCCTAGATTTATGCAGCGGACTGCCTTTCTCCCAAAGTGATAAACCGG…AGGTTGGTTTCACT; site = the 11-nt donor
# recombinant UMI read abundance (log10) >= 0.03 gives label 1, anything below gives label 0

ACGGTCACATGGACCGGTTTTCCCGGTAATCCGTATTTGTA (site ACGGTCACTTA)	label 1
GGTCCACCATGGACCGGTTTTCCCGGTAATCCGTATTTGTA (site GGTCCACCTTA)	label 0
GTTTATTCATGGACCGGTTTTCCCGGTAATCCGTATTTGGT (site GTTTATTCTAC)	label 1
AAAGTCTCATGGACCGGTTTTCCCGGTAATCCGTATTTGAT (site AAAGTCTCTAT)	label 1
TATGCAACATGGACCGGTTTTCCCGGTAATCCGTATTTGTT (site TATGCAACTAA)	label 0
GACAATCCATGGACCGGTTTTCCCGGTAATCCGTATTTGAA (site GTCAATCCTTT)	label 0
CCTAATGCATGGACCGGTTTTCCCGGTAATCCGTATTTGAT (site CCTAAAGCTAT)	label 0
CACTTGGCATGGACCGGTTTTCCCGGTAATCCGTATTTGGA (site CTCTTGGCTTC)	label 1
GAAAACGCATGGACCGGTTTTCCCGGTAATCCGTATTTGAA (site GAAAACGCTTT)	label 1

---

Method description: recombinant UMI read abundance after kanamycin selection (control-corrected) (log10(CPM+1)); higher = more efficient recombination; extreme values may be limits of the assay; sequences stand for … in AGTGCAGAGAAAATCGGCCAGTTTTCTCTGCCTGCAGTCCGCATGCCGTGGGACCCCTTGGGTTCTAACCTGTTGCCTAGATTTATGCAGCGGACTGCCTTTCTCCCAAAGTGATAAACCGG…AGGTTGGTTTCACT; site = the 11-nt donor
Measured parameter: recombinant UMI read abundance (log10)

ACCCTTACATGGACCGGTTTTCCCGGTAATCCGTATTTGAG (site ACCCTTACTCT)	1.66
ATGTTCCCATGGACCGGTTTTCCCGGTAATCCGTATTTGTG (site AGGTTCCCTCA)	0.0415
GCGTAGGCATGGACCGGTTTTCCCGGTAATCCGTATTTGCT (site GCGTAGGCTAG)	2.51
CCTCGATCATGGACCGGTTTTCCCGGTAATCCGTATTTGGC (site CCTCGATCTGC)	0
CTCCCTACATGGACCGGTTTTCCCGGTAATCCGTATTTGAC (site CTCCCTACTTT)	0.415
CCGTCAGCATGGACCGGTTTTCCCGGTAATCCGTATTTGTG (site CCGTAAGCTCA)	0
AGGAAACCATGGACCGGTTTTCCCGGTAATCCGTATTTGTT (site AGGAAACCTAA)	0
AGTTATTCATGGACCGGTTTTCCCGGTAATCCGTATTTGCA (site AGTTATTCTTG)	2.11
ACTAGTCCATGGACCGGTTTTCCCGGTAATCCGTATTTGGT (site ACTAGTCCTAC)	0.00473
CGAATGCCATGGACCGGTTTTCCCGGTAATCCGTATTTGAC (site CGAATGCCTGT)	0.465
CCAGGTGCATGGACCGGTTTTCCCGGTAATCCGTATTTGAT (site CCACGTGCTAT)	0.497
GATAATCCATGGACCGGTTTTCCCGGTAATCCGTATTTGCT (site GATCATCCTAG)	0
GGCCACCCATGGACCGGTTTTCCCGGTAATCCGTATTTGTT (site GGCAACCCTAA)	0.00185
GAAGGACCATGGACCGGTTTTCCCGGTAATCCGTATTTGCG (site GAAGGACCTCG)	0
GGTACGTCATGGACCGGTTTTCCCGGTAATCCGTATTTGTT (site GGGACGTCTAA)	0.0133
GGGGCACCATGGACCGGTTTTCCCGGTAATCCGTATTTGAA (site GGGGCACCTTG)	0
GACAATCCATGGACCGGTTTTCCCGGTAATCCGTATTTGAA (site GACAATCCTTT)	0.601
AGTTCAGCATGGACCGGTTTTCCCGGTAATCCGTATTTGGG (site AGTTCAGCTCC)	0.017
GCGAAAACATGGACCGGTTTTCCCGGTAATCCGTATTTGCT (site GTGAAAACTAG)	0
ACCTTGCCATGGACCGGTTTTCCCGGTAATCCGTATTTGAA (site ACCTTGCCTTT)	0.00655
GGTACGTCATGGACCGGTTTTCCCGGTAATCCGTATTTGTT (site GGTACGTCTTA)	0.0065
TACTTAACATGGACCGGTTTTCCCGGTAATCCGTATTTGCT (site TACTTCACTAG)	0.00655
GAACTCACATGGACCGGTTTTCCCGGTAATCCGTATTTGAT (site GATCTCACTAT)	0.263
TTTGCGGCATGGACCGGTTTTCCCGGTAATCCGTATTTGCC (site TTTGCGGCTGG)	0
ATAAGGCCATGGACCGGTTTTCCCGGTAATCCGTATTTGCC (site ATAAGGCCTGA)	0
GAGCGAGCATGGACCGGTTTTCCCGGTAATCCGTATTTGTA (site GAGCGAGCTTA)	2.57
AAGCGCGCATGGACCGGTTTTCCCGGTAATCCGTATTTGGG (site AAGCCCGCTCC)	0.0103
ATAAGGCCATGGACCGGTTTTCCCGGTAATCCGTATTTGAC (site GTAAGGCCTGT)	0
CCATGTGCATGGACCGGTTTTCCCGGTAATCCGTATTTGAT (site CCAAGTGCTAT)	0.00273
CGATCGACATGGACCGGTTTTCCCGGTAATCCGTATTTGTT (site CGATAGACTAA)	0.00765
GGGTCACCATGGACCGGTTTTCCCGGTAATCCGTATTTGCA (site GGGCCACCTTG)	0
CTACAACCATGGACCGGTTTTCCCGGTAATCCGTATTTGAT (site CTACAACCTAT)	0
CTTCTCTCATGGACCGGTTTTCCCGGTAATCCGTATTTGAA (site CTTCTCTCTTT)	0.96
GGGTCACCATGGACCGGTTTTCCCGGTAATCCGTATTTGCA (site GGGTCACCTTG)	0
ATGATGGCATGGACCGGTTTTCCCGGTAATCCGTATTTGAC (site ATGATGGCTGT)	2.7
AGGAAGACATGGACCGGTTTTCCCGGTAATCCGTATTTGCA (site AGTAAGCCTTG)	0
